tested on: Toxoplasma gondii RH-2F tachyzoites; assay: microbe, parasite or virus in culture; settings: 72 h, read-out: Parasite inhibition (%) mean, preliminary screen of compound library, mean
Structures can show the parent of a compound that is named as a salt.

{"compound": "CCc1c(O)cc(O)c(C(=O)c2ccc(OCCN3CCOCC3)c(OC)c2)c1CC(=O)N(CCOC)CCOC [KW-2478]", "inhibition of growth at 5 µM [%]": 7.8}
{"compound": "C[C@H]1CNCCc2ccc(Cl)cc21 [Lorcaserin HCl]", "inhibition of growth at 5 µM [%]": 34.8}
{"compound": "CN1CC[C@H](c2c(O)cc(O)c3c(=O)cc(-c4ccccc4Cl)oc23)[C@H](O)C1 [Flavopiridol (Alvocidib) HCl]", "inhibition of growth at 5 µM [%]": 6.4}
{"compound": "COC1CCN(C(=O)c2cc(Cc3n[nH]c(=O)c4ccccc34)ccc2F)CC1 [AZD2461]", "inhibition of growth at 5 µM [%]": 11}
{"compound": "COc1ccc(F)c(F)c1C(=O)c1cnc(NC2CCN(S(C)(=O)=O)CC2)nc1N [R547]", "inhibition of growth at 5 µM [%]": 11.7}
{"compound": "C[C@H](NC(=O)/C(C#N)=C/c1cccc(Br)n1)c1ccccc1 [WP1066]", "inhibition of growth at 5 µM [%]": -8.7}
{"compound": "CCOC(=O)c1c(CSc2ccccc2)n(C)c2cc(Br)c(O)c(CN(C)C)c12 [Arbidol HCl]", "inhibition of growth at 5 µM [%]": 2.8}
{"compound": "C#Cc1cccc(Nc2ncnc3cc4c(cc23)OCCOCCOCCO4)c1 [Icotinib]", "inhibition of growth at 5 µM [%]": 13.6}
{"compound": "OC[C@@H](O)[C@@H](O)[C@H](O)[C@@H](O)CO [Sorbitol (Glucitol)]", "inhibition of growth at 5 µM [%]": -66.9}

Data origin, for the record: paper PMC7216583
